tested on: Enterococcus sp.; assay: in vitro antibacterial evaluation, MIC by broth dilution; assay type: cell-based; conditions: broth dilution, 18 hours at 35° C.; strain GC 4552
Catalogue of MIC Enterococcus faecalis (GC 4552) readings, one per entry.
Give just the numeric value; µg/mL need not be written.

Some entries whose results are on file:
compound	MIC Enterococcus faecalis (GC 4552) [µg/mL]
CC(c1ccccc1)C1NC(=O)CNC(=O)C(CO)NC(=O)C(C(O)C2CNC(=N)N2C2OC(CO)C(O)C(O)C2O)NC(=O)C(C(O)C2CNC(=N)N2)NC(=O)C(Cc2ccc(OC3OC(CO)C(OC4OC(CO)C(OCC=C(c5ccccc5)c5ccccc5)C(O)C4O)C(O)C3O)cc2)NC1=O (centres unmarked) [Example 241a]	4
CC(C)CC(=O)OC1C(O)C(CO)OC(OC2C(CO)OC(Oc3ccc(CC4NC(=O)C(C(C)c5ccc(Cl)cc5)NC(=O)CNC(=O)C(CO)NC(=O)C(C(O)C5CNC(=N)N5C5OC(CO)C(O)C(O)C5O)NC(=O)C(C(O)C5CNC(=N)N5)NC4=O)cc3)C(O)C2O)C1O (centres unmarked) [Example 262b]	32
CC=C(C)C(=O)OC1C(CO)OC(OC2C(CO)OC(Oc3ccc(CC4NC(=O)C(C(C)c5ccccc5)NC(=O)CNC(=O)C(CO)NC(=O)C(C(O)C5CNC(=N)N5C5OC(CO)C(O)C(O)C5O)NC(=O)C(C(O)C5CNC(=N)N5)NC4=O)cc3)C(O)C2O)C(O)C1O (centres unmarked) [Example 278b]	32
COc1ccc(COCC2OC(OC3C(CO)OC(Oc4ccc(CC5NC(=O)C(C(C)c6ccccc6)NC(=O)CNC(=O)C(CO)NC(=O)C(C(O)C6CNC(=N)N6C6OC(CO)C(O)C(O)C6O)NC(=O)C(C(O)C6CNC(=N)N6)NC5=O)cc4)C(O)C3O)C(O)C(O)C2O)c2ccccc12 (centres unmarked)	16
CC(C)CC1OCC2OC(OC3C(CO)OC(Oc4ccc(CC5NC(=O)C(C(C)c6ccccc6)NC(=O)CNC(=O)C(CO)NC(=O)C(C(O)C6CNC(=N)N6C6OC(CO)C(O)C(O)C6O)NC(=O)C(C(O)C6CNC(=N)N6)NC5=O)cc4)C(O)C3O)C(O)C(O)C2O1 (centres unmarked)	4

Bench note: what MIC Enterococcus faecalis (GC 4552) did CCOc1cc(COCC2OC(OC3C(CO)OC(Oc4ccc(CC5NC(=O)C(C(C)c6ccccc6)NC(=O)CNC(=O)C(CO)NC(=O)C(C(O)C6CNC(=N)N6C6OC(CO)C(O)C(O)C6O)NC(=O)C(C(O)C6CNC(=N)N6)NC5=O)cc4)C(O)C3O)C(O)C(O)C2O)ccc1OC (centres unmarked) show?
32

Likewise for CC(=O)OCC1OC(OC2C(CO)OC(Oc3ccc(CC4NC(=O)C(C(C)c5ccccc5)NC(=O)CNC(=O)C(CO)NC(=O)C(C(O)C5CNC(=N)N5C5OC(CO)C(O)C(O)C5O)NC(=O)C(C(O)C5CNC(=N)N5)NC4=O)cc3)C(O)C2O)C(O)C(OC(=O)CCC(C)C)C1O (centres unmarked) [Example 270b] ?
32

Likewise for CC(C)=CCCC(C)C1OCC2OC(OC3C(CO)OC(Oc4ccc(CC5NC(=O)C(C(C)c6ccccc6)NC(=O)CNC(=O)C(CO)NC(=O)C(C(O)C6CNC(=N)N6C6OC(CO)C(O)C(O)C6O)NC(=O)C(C(O)C6CNC(=N)N6)NC5=O)cc4)C(O)C3O)C(O)C(O)C2O1 (centres unmarked) ?
32

Likewise for CC(c1ccccc1)C1NC(=O)CNC(=O)C(CO)NC(=O)C(C(O)C2CNC(=N)N2C2OC(CO)C(O)C(O)C2O)NC(=O)C(C(O)C2CNC(=N)N2)NC(=O)C(Cc2ccc(OC3OC(CO)C(OC4OC(COCc5cccs5)C(O)C(O)C4O)C(O)C3O)cc2)NC1=O (centres unmarked) ?
32

Likewise for CCCCOC(=O)CCC1OCC2OC(OC3C(CO)OC(Oc4ccc(CC5NC(=O)C(C(C)c6ccccc6)NC(=O)CNC(=O)C(CO)NC(=O)C(C(O)C6CNC(=N)N6C6OC(CO)C(O)C(O)C6O)NC(=O)C(C(O)C6CNC(=N)N6)NC5=O)cc4)C(O)C3O)C(O)C(O)C2O1 (centres unmarked) ?
4

---

tested on: Enterococcus sp.; assay: in vitro antibacterial evaluation, MIC by broth dilution; assay type: cell-based; conditions: strain GC 2243; broth dilution, 18 hours at 35° C.
Catalogue of MIC Enterococcus faecium (GC 2243) readings, one per entry.
Give just the numeric value; µg/mL need not be written.

Some entries whose results are on file:
molecule	unit-symbol	meas-value
CC(c1ccccc1)C1NC(=O)CNC(=O)C(CO)NC(=O)C(C(O)C2CNC(=N)N2C2OC(CO)C(O)C(O)C2O)NC(=O)C(C(O)C2CNC(=N)N2)NC(=O)C(Cc2ccc(OC3OC(CO)C(OC4OC5COC(c6ccc7ccccc7c6)OC5C(O)C4O)C(O)C3O)cc2)NC1=O (stereo not shown)	µg/mL	1
CC(c1ccccc1)C1NC(=O)CNC(=O)C(CO)NC(=O)C(C(O)C2CNC(=N)N2C2OC(CO)C(O)C(O)C2O)NC(=O)C(C(O)C2CNC(=N)N2)NC(=O)C(Cc2ccc(OC3OC(CO)C(OC4OC(CO)C(O)C5OC(c6ccc(-c7ccsc7)cc6)OC45)C(O)C3O)cc2)NC1=O (stereo not shown) [Example 164a]	µg/mL	8
CC(c1ccccc1)C1NC(=O)CNC(=O)C(CO)NC(=O)C(C(O)C2CNC(=N)N2C2OC(CO)C(O)C(O)C2O)NC(=O)C(C(O)C2CNC(=N)N2)NC(=O)C(Cc2ccc(OC3OC(CO)C(OC4OC5COC(c6ccc(-c7ccc(Cl)cc7)cc6)OC5C(O)C4O)C(O)C3O)cc2)NC1=O (stereo not shown)	µg/mL	4
CCCc1ccc(C2OCC3OC(OC4C(CO)OC(Oc5ccc(CC6NC(=O)C(C(C)c7ccccc7)NC(=O)CNC(=O)C(CO)NC(=O)C(C(O)C7CNC(=N)N7C7OC(CO)C(O)C(O)C7O)NC(=O)C(C(O)C7CNC(=N)N7)NC6=O)cc5)C(O)C4O)C(O)C(O)C3O2)cc1 (stereo not shown)	µg/mL	1

Consider the additional molecule presented here.
Bench note: what MIC Enterococcus faecium (GC 2243) did Cc1cc(C2OCC3OC(OC4C(CO)OC(Oc5ccc(CC6NC(=O)C(C(C)c7ccccc7)NC(=O)CNC(=O)C(CO)NC(=O)C(C(O)C7CNC(=N)N7C7OC(CO)C(O)C(O)C7O)NC(=O)C(C(O)C7CNC(=N)N7)NC6=O)cc5)C(O)C4O)C(O)C(O)C3O2)ccc1[N+](=O)[O-] (stereo not shown) show?
32

---

test system: Enterococcus sp.; test: in vitro antibacterial evaluation, MIC by broth dilution; type: cell-based; conditions: broth dilution, inoculum 5×10^5 CFU/mL, 18 hours at 35° C.; strain GC 2691
Catalogue of MIC Enterococcus faecalis (GC 2691) readings, one per entry.
Give just the numeric value; µg/mL need not be written.

molecule	unit-symbol	MIC Enterococcus faecalis (GC 2691)
CC(c1ccccc1)C1NC(=O)CNC(=O)C(CO)NC(=O)C(C(O)C2CNC(=N)N2C2OC(CO)C(O)C(O)C2O)NC(=O)C(C(O)C2CNC(=N)N2)NC(=O)C(Cc2ccc(OC3OC(CO)C(OC4OC5COC(c6ccc(-c7ccc(Cl)cc7)cc6)OC5C(O)C4O)C(O)C3O)cc2)NC1=O (stereo not shown)	µg/mL	1
CCCCN1CC(C(O)C2NC(=O)C(C(O)C3CNC(=N)N3)NC(=O)C(Cc3ccc(OC4OC(CO)C(OC5OC6COC7(OC6C(O)C5O)C5CC6CC(C5)CC7C6)C(O)C4O)cc3)NC(=O)C(C(C)c3ccccc3)NC(=O)CNC(=O)C(CO)NC2=O)N(C2OC(CO)C(O)C(O)C2O)C1=N (stereo not shown)	µg/mL	4
CC(c1ccccc1)C1NC(=O)CNC(=O)C(CO)NC(=O)C(C(O)C2CNC(=N)N2C2OC(CO)C(O)C(O)C2O)NC(=O)C(C(O)C2CNC(=N)N2)NC(=O)C(Cc2ccc(OC3OC(CO)C(OC4OC(COCc5ccc(Oc6ccccc6)cc5)C(O)C(O)C4O)C(O)C3O)cc2)NC1=O (stereo not shown)	µg/mL	2
CC(c1ccccc1)C1NC(=O)CNC(=O)C(CO)NC(=O)C(C(O)C2CNC(=N)N2C2OC(CO)C(O)C(O)C2O)NC(=O)C(C(O)C2CNC(=N)N2)NC(=O)C(Cc2ccc(OC3OC(CO)C(OC4OC5COC6(CCSCC6)OC5C(O)C4O)C(O)C3O)cc2)NC1=O (stereo not shown)	µg/mL	16
CC(c1ccccc1)C1NC(=O)CNC(=O)C(CO)NC(=O)C(C(O)C2CNC(=N)N2C2OC(CO)C(O)C(O)C2O)NC(=O)C(C(O)C2CNC(=N)N2)NC(=O)C(Cc2ccc(OC3OC(CO)C(OC4OC(CO)C(O)C5OC6(CCCCCCCCCCCC6)OC45)C(O)C3O)cc2)NC1=O (stereo not shown) [Example 210a]	µg/mL	8

Consider the additional molecule presented here.
Bench note: what MIC Enterococcus faecalis (GC 2691) did CC(C)CC(=O)OC1C(O)C(OC2C(CO)OC(Oc3ccc(CC4NC(=O)C(C(C)c5ccccc5)NC(=O)CNC(=O)C(CO)NC(=O)C(C(O)C5CNC(=N)N5C5OC(CO)C(O)C(O)C5O)NC(=O)C(C(O)C5CNC(=N)N5)NC4=O)cc3)C(O)C2O)OC2COC3(OC21)C1CC2CC(C1)CC3C2 (stereo not shown) show?
4
